test system: SNB-75 CNS; experiment: NCI tumour cell line growth inhibition, 384-well format; in the data active means GI50 below about 0.43 µM; inactive means the rest
Hello, when you answer, please use one of the following outcomes: active, inactive

>>> group_label("CC(C)NC(=O)OCc1c(COC(=O)NC(C)C)c(-c2ccc(Cl)c(Cl)c2)n2c1SCC2")
"inactive"
>>> group_label("COc1cc2nccc(Oc3ccc(NC(=O)NC4CC4)c(Cl)c3)c2cc1C(N)=O")
"inactive"
>>> group_label("CN(C)c1ccc(N)c2ccccc12")
"inactive"

Next up:
Lookup: Hi, do you know how Nc1ccccc1NC(=O)c1ccc(CNc2nccc(-c3cccnc3)n2)cc1 came out in this test?
Found: active

====

tested on: BT-549 breast; assay: NCI tumour cell line growth inhibition, 384-well format
property.name: GI50

// solved cases for GI50 follow
>>> test_value("CC(C)NC(=O)OCc1c(COC(=O)NC(C)C)c(-c2ccc(Cl)c(Cl)c2)n2c1SCC2")
"3.92 µM"
>>> test_value("CN(C)c1ccc(N)c2ccccc12")
"1.5 µM"
>>> test_value("COc1cc2nccc(Oc3ccc(NC(=O)NC4CC4)c(Cl)c3)c2cc1C(N)=O")
"3.76 µM"

Lookup: Given Cc1ccc(NC(=O)c2ccc(CN3CCN(C)CC3)cc2)cc1Nc1nccc(-c2cccnc2)n1 , state its recorded GI50.
Found: 12.1 µM

====

test system: SK-MEL-5 melanoma; test: NCI tumour cell line growth inhibition, 384-well format; in the data active = GI50 below about 0.43 µM; inactive = the rest
Hello, when you answer, please use one of the following outcomes: True for active, False for inactive

>>> group_label("CC(C)NC(=O)OCc1c(COC(=O)NC(C)C)c(-c2ccc(Cl)c(Cl)c2)n2c1SCC2")
"False"
>>> group_label("Cc1ccc(NC(=O)c2ccc(CN3CCN(C)CC3)cc2)cc1Nc1nccc(-c2cccnc2)n1")
"False"
>>> group_label("Nc1ccccc1NC(=O)c1ccc(CNc2nccc(-c3cccnc3)n2)cc1")
"True"
>>> group_label("CN(C)c1ccc(N)c2ccccc12")
"True"

Next up:
Lookup: Hi, do you know how COc1cc2nccc(Oc3ccc(NC(=O)NC4CC4)c(Cl)c3)c2cc1C(N)=O came out in this test?
Found: False

====

tested on: HCC-2998 colon; experiment: NCI tumour cell line growth inhibition, 384-well format; in the data active = GI50 below about 0.43 µM; inactive = the rest
Hello, when you answer, please use one of the following outcomes: true for active, false for inactive

Below are worked cases with known answers.
>>> group_label("COc1cc2nccc(Oc3ccc(NC(=O)NC4CC4)c(Cl)c3)c2cc1C(N)=O")
"false"
>>> group_label("CN1CCC(COc2cnc(-c3cccc(Cn4nc(-c5cccc(C#N)c5)ccc4=O)c3)nc2)CC1")
"false"
>>> group_label("Nc1ccccc1NC(=O)c1ccc(CNc2nccc(-c3cccnc3)n2)cc1")
"true"

Next up:
Lookup: Hi, do you know how Cc1ccc(NC(=O)c2ccc(CN3CCN(C)CC3)cc2)cc1Nc1nccc(-c2cccnc2)n1 came out in this test?
Found: false

All values here come from PubChem BioAssay (NCI).
